system.tested: Transient receptor potential cation channel subfamily A member 1 (Homo sapiens, UniProt O75762)
Sequence (O75762 whole entry): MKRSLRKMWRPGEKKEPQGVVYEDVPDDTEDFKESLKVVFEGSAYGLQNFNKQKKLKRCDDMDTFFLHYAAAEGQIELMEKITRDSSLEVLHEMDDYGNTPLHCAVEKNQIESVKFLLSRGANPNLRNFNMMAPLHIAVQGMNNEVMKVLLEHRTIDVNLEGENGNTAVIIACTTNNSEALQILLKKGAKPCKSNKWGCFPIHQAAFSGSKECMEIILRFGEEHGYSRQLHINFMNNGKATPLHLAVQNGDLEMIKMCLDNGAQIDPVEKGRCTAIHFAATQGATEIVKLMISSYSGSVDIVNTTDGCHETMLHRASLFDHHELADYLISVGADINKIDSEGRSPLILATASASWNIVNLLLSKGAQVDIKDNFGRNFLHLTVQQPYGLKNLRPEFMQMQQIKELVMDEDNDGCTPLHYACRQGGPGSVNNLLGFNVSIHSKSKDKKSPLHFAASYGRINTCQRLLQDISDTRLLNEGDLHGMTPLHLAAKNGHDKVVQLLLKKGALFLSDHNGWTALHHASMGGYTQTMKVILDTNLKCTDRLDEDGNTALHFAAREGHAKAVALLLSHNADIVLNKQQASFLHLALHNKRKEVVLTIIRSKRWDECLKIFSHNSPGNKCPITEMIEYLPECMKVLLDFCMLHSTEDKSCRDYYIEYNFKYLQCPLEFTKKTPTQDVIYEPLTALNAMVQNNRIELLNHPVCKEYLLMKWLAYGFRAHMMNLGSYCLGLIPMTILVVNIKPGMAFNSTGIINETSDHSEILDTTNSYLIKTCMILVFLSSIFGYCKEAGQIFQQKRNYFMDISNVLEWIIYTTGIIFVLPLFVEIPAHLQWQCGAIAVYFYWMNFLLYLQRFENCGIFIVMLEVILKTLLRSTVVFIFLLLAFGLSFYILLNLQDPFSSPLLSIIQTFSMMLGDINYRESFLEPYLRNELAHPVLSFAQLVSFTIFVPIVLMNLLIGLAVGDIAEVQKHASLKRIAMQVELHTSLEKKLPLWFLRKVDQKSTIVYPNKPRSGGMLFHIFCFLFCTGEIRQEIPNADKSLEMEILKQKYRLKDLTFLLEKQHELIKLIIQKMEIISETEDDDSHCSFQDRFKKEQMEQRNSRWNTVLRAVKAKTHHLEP
assay.protocol: Agonist activity at recombinant human TRPA1 expressed in HEK293 cells assessed as increase in intracellular Ca2+ level pre-incubated for 5 mins by Fluo4-AM dye-based fluorescence assay
Format: cell-based
test.readout: EC50 (µM)

1. CC(C)[C@@H]1CC[C@@H](C)C[C@H]1O [LEVOMENTHOL]
2. C=CCc1cc(OC)c(OC(C)C(OCC)c2ccc(O)c(OC)c2)c(OC)c1 (mixture of isomers)
Returns: the label, 1 or 2 , whose recorded EC50 is the lower number. Label of pick, please.
2
(2: 19.1 µM, 1: 96 µM)
